# target.or.test.system: UniProtKB P25090
# Sequence (P25090 whole entry): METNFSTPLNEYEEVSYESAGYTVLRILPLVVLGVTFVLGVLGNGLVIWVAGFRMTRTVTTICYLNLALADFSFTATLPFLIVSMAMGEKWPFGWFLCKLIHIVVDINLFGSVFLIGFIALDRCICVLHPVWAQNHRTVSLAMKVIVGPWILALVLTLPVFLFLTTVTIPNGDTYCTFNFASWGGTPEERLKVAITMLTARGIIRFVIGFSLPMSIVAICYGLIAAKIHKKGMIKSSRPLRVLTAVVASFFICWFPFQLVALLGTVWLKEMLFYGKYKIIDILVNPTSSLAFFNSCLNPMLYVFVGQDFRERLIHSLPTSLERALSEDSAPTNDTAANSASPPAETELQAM
# assay.protocol: FPR2 cyclic adenosine monophosphate (cAMP) assay
# condition.set: CHO cells overexpressing human FPR2; forskolin 5 µM; inhibition of cAMP production; read-out: hFPR2 cAMP2 EC50
observed.property: EC50 (nM)

{"columns": ["compound", "observed.property", "observed.result"],
 "data": [
  ["COc1cc(F)c([C@@H]2CN(c3ccc(CO)n(C)c3=O)C(=O)[C@H]2NC(=O)c2ccc(OC(F)(F)F)cc2)c(F)c1", "EC50", 6.2],
  ["COc1cc(F)c([C@@H]2CN(c3cccn(CC(C)O)c3=O)C(=O)[C@H]2NC(=O)c2ccc(OC(F)(F)F)cc2)c(F)c1 (stereo partly drawn) [Example 173]", "EC50", 4.5],
  ["COc1cc(F)c([C@@H]2CN(c3c(C)ccn(C4CCOC4)c3=O)C(=O)[C@H]2NC(=O)c2ccc(OC(F)(F)F)cc2)c(F)c1 (stereo partly drawn) [Example 655]", "EC50", 3.8],
  ["COc1cc(F)c([C@@H]2CN(c3ccnn(CCC(F)(F)F)c3=O)C(=O)[C@H]2NC(=O)c2ccc(OC(F)F)cc2)c(F)c1", "EC50", 2.1]
]}

(a) COc1cc(F)c([C@@H]2CN(c3c(C)ncn(CC4(C)COC4)c3=O)C(=O)[C@H]2NC(=O)c2ccc(Cl)cc2)c(F)c1
(b) COc1ccc([C@@H]2CN(c3cccn(CC(OC)C(F)(F)F)c3=O)C(=O)[C@H]2NC(=O)c2ccc(OC(F)(F)F)cc2)cc1 (stereo partly drawn)
IN: Sorting ascending by EC50, which comes first: a or b ? Field: selected label. Fill in the label of the entry you choose.
OUT: b

---

# target.or.test.system: human FPR1 (Homo sapiens (Human))
# Sequence (P21462 whole entry): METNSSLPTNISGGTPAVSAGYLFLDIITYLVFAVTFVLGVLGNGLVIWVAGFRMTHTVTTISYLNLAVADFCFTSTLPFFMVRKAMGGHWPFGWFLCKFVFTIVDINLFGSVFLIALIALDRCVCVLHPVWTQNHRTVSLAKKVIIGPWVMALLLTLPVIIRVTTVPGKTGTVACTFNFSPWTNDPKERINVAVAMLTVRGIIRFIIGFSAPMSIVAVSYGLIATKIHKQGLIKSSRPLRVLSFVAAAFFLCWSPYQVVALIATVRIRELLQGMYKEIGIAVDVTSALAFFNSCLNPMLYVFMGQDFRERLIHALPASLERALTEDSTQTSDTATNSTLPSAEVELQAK
# assay.protocol: FPR1 cyclic adenosine monophosphate (cAMP) assay
# condition.set: CHO cells overexpressing human FPR1; forskolin 10 µM; inhibition of cAMP production; read-out: hFPR1 cAMP EC50
pEC50: −log10 of the molar value.
observed.property: pEC50

Solved entries (count: 2):
{"columns": ["compound", "pEC50"],
 "data": [
  ["CCn1cccc(N2C[C@@H](c3c(F)cc(OC)cc3F)[C@H](NC(=O)c3cccc(OC)c3)C2=O)c1=O [Example 345]", 8.51],
  ["COc1cc(F)c([C@@H]2CN(c3c(C)ccn(CC(C)O)c3=O)C(=O)[C@H]2NC(=O)c2ccc(OC(F)(F)F)cc2)c(F)c1 (stereo partly drawn) [Example 359]", 8.22]
]}

(P) COCCn1ccc(C)c(N2C[C@@H](c3c(F)cc(OC)cc3F)[C@H](NC(=O)c3ccc(Cl)cc3)C2=O)c1=O [Example 422]
(Q) COCC(C(=O)N(C)C)n1cccc(N2C[C@@H](c3c(F)cc(OC)cc3F)[C@H](NC(=O)c3ccc(OC(F)F)cc3)C2=O)c1=O (stereo partly drawn) [Example 172]
IN: pEC50 comparison. Which is larger, P or Q ? Field: selected label. Fill in the label of the entry you choose.
OUT: P
(P: 8.52, Q: 7.41)

(1) COc1ccc([C@@H]2CN(c3cccn(CC(C)OC)c3=O)C(=O)[C@H]2NC(=O)c2ccc(OC(F)(F)F)cc2)cc1 (stereo partly drawn) [Example 405]
(2) COc1cc(F)c([C@@H]2CN(c3nc(NC4CCOC4)ccc3F)C(=O)[C@H]2NC(=O)c2ccc(OC(F)(F)F)cc2)c(F)c1 (stereo partly drawn) [Example 84]
IN: pEC50 comparison. Which is larger, 1 or 2 ? Field: selected label. Fill in the label of the entry you choose.
OUT: 1
